// data source = the supplement of paper PMC8728848

assayedSystem: Neu5Ac(a2-3)Gal(b1-3)GalNAc6S
measurementNotes: glycan array binding signal (z-score within array); higher = stronger binding
assayConditions: glycan notation: IUPAC condensed, linker removed
About 410 targets per protein were measured; listed, in parts, are those with the strongest signals and a random draw of the rest.
experimentalReadout: glycan array binding signal (z-score)
Number only, no unit.

Consider the reported glycan array binding signal (z-score) for these binders:
[in] Recorded glycan array binding signal (z-score) of Drgal1 (Danio rerio) (protein) MAGVLIQNMSFKVGQTLTITGVPKPDSTNFAINIGHSPEDIALHMNPRFDAHGDQCTIVCNSFQSGSWCEEHRDDNFPFIQDKEFQIKITFTNEEFLVTLPDGSEIHFPNRQGSEKYKYMYFEGEVRIQGVEIK , please.
[out] -0.412

[in] Another: OS9-MRH (Homo sapiens), Q13438 (protein) IPELLSPMRDAPCLLKTKDWWTYEFCYGRHIQQYHMEDSEIKGEVLYLGYYQSAFDWDDETAKASKQHRLKRYHSQTYGNGSKCDLNGRPREAEVRFLCDEGAGISGDYIDRVDEPLSCSYVLTIRTPRLCPHPLLRPPPSAAPQAI
[out] 0.458

Others:
[in] Returns the measured glycan array binding signal (z-score) for the input binder. Input: LSECtin (Homo sapiens), Q6UXB4 (protein) MEQESALRELRERVTQGLAEAGRGREDVRTELFRALEAVRLQNNSCEPCPTSWLSFEGSCYFFSVPKTTWAAAQDHCADASAHLVIVGGLDEQGFLTRNTRGRGYWLGLRAVRHLGKVQGYQWVDGVSLSFSHWNQGEPNDAWGRENCVMMLHTGLWNDAPCDSEKDGWICEKKAQLLTPPSALEPRPLQHVVSWGLLTSLAPGADCQRVFSSSSTAAESQKHLAQHSPVQPSAWALGPPCRPHPNSTHADPT
[out] -0.307

[in] Subsequent entry: Banana lectin (Musa acuminata) (protein) MNGAIKVGAWGGNGGSAFDMGPAYRIISVKIFSGDVVDGVDVTFTYYGKTETRHYGGSGGTPHEIVLQEGEYLVGMAGEVANYHGAVVLGKLGFSTNKKAYGPFGNTGGTPFSLPIAAGKISGFFGRGGKFLDAIGVYLEPLEHHHHHH
[out] -0.237
